test system: K4 kissing-loop RNA reporter; test: apparent KD of K4 kissing-loop reporter; higher = weaker reporter binding; conditions: Eterna round: R107; input ligand: arginine 13.2 mM

polymer-sequence	unit-descriptor	apparent KD of K4 kissing-loop reporter
UAAUUUAUGUCUUUAAUAUAAUAAUCAGAUACCAGUGAUUUAUGACACCCUUGGCAGCUGUAUAGAGUGAUGUUCUUAUGCUUAA [JR_ExcTheophyA_Sub011]	nM	324
CGCUGGGCGAGUGAUGUUCGCUCACGUGAUACCAGUGCCAUCCAACACCCUUGGCAGCACGCGGGCAGUGAUGUUGUCCUUGUGG [Exclusion Theophylline A GF7]	nM	241
UGUCAUUGGUCGGCCGCCACUUCAUGUAGAGUGAUGUUCUGUAGGACGGAUCGAAAGAUCUGUCGAAGGACCGGGACCGAUGACU [FiskerMod 14 - Jieux - Same State - Tryptophan B]	nM	725
UAGGAGUGAUGUUCCAUAUCUUGAGCCGAAGGAGCGGCAUUAUAGCCAGGUAGGUCGCGGCAGAAGGUACCAGUGAUGUUGGAAA [Same State Arginine A GF5]	nM	160
CGCGCGCGCGCGCGCGCGCGCGAAAAUGAUACCAGUAUAUAAGAAUACCCUUGGCAGCAUAAGAAAGAUAUAGUGAUGUUGUAUA [SSTheophA.A]	nM	76.5
GCCGUAGAUUGAAGGAGCGCCUUCUUACCAAGAGUGAUGUUCUUAGGUACCAUGUUCAGUAGGCAGGUAGGUCGCAAUCUACGGC	nM	441
AUUCUAUUGUGAAGGAGCGCGACUAGUAGUGAUGUUACUAUAUGACUUUAGUCUUAAUUCUCGCAGGUAGGUCGCACAAUAUAUA [JR_Nu_SSArginiB_Sub028]	nM	594
UUUUUCGCGUUUGAUACCAGCAGAGUUGUUCGUGUCUGGAGCGUGAGUGAUGUUCAUGUCUGCCCUUGGCAGCAAACGGGAGAAG [KL-XTheo-B14]	nM	113
GGGAGUAGUGCGGCCGCCACUGAGAAAGAAGAAGAAUAUAGUGAUGUUAUAUAGGAAGGGAAGAAUAGGACCGGGCAUUAGAUUU [SSTRyptB.Z]	nM	250
GUCCCAGUGAUGUUGGUAGGCGAGCGGGAUACCAGCCAAGACUCAGGCCCUUGGCAGCCCACAUAUCCCACGUAGGGAUUAGCUC [Same State - Theophylline A (Freestyle 19)]	nM	198
ACUUGAGCACAAAGCACACCAAGCAGUAGGUAGGAUAUCCGGCUUAGGAGAAGGACCAUGCAGUGAUGUUGCAUGCUCCUCCAUG [Onraordi]	nM	94.7
GGUAGCAUGGCGGCCGCCACUAAGAGAGUGAUGUUCUCUUAGUUUUUUGAUGUGUUAUCAAUUCUUAGGACCGGGCCAUGCUACC	nM	92.4

====

tested on: K4 kissing-loop RNA reporter; test: apparent KD of K4 kissing-loop reporter; higher = weaker reporter binding; conditions: Eterna round: R107; input ligand: theophylline 20 uM;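 further: bound reporter read as fluorescence of individual clusters on recovered sequencing chips by microscopy, with normalized cluster intensities fitted with a binding model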
observable: apparent KD of K4 kissing-loop reporter (nM)

polymer-sequence	test-value
UGAUAGCCAGUGAUGUUGGCAUAUACUGAAGGAGCGCGUGAAAACGCAGGUAGGUCGCAGUUCCUUGCCAAUUGAUCGAAAGAUC [#08 K4 Arginine A Exclusion]	207
GCUACCUAUGCAGGAUAUGGUAUUACGAGUGAUGUUCGAGGCGAAUAGAGUGAUGUUCUAUUUCCACCAGAAGGGCAUAGGUAGC	136
UGUCAUUGGUCGGCCGCCACUAGACGGAUCAUAAGAUCUGUCAAUAAGAGUGAUGUUCUAAAUAAUAGGACCGGGACCGAUGACU [TrypBS 27 #SwitchBubble #StaticStem]	681
GUUACGCAUGGAAGGAGCGCGAUUAAAUUUAGUGAGUGAUGUUCACAAAAUAAAACUAAAACGCAGGUAGGUCGCCAUGUGUAAC [Ex Arginine B K4 2]	198
UGAUACCAGACUGAUACCAGCUAGUGAUGUUAGCUGAUCUAAGGACCGUCAAAGACGGCUAGCCCUUGGCAGCAGUCUGGUAUCU [TheoBX 13 #SwitchBubble #StaticStem]	130
GGUUCUGUUUUAGGUUUAGUGAUGUUGAAUCGAGGACCGGUACGGCCGCCACUCGGUGACGUCGUAACUUUGGAGGUCCUAACCA [theeternabot_exclusion_KL_Trp_A_47]	658
UGGUCUGCACGAAGGAGCGCCCUGACAGGUUGCUGCCGUGGGCAGUGAUGUUGCUUAGUCCGGCAGGUAGGUCGCGUGCAGACCA	189
AAGGCCACGAGAAGGAGCGUGCUAUGGAGUGAUGUUCCAGUGUAGACCUAAGGUCUACACGCACAGGUAGGUCGCUCGUGGUCAA [Omei KL Arginine B SS A v1]	238
ACGUGAAGCGACUCCUAGUUAAACCGGGAAGGAGCGCGGAUAACCGCAGGUAGGUCGCCCGGAAGCCGGACCAGUGAUGUUGGUC [Exclusion Arginine A Gf 26]	217
AAACGCUGGAUGAAUAACAUCUAGCGAAUUCGAGGACCGGUACGGCCGCCACUCGAGCUAACUGCGAGUGAUGUUCGAUAAUAAA [Mat - Mod of OpenEnded 3 - D1]	524
GCCUACGAUGCAGGAUAUAGCUCGCGAGUGAUGUUCGCAGCUGUAUGGUAGUAAACUUCCACGUGUCUAGAAGGGCAUCGUAGGC	80
GGCAUAUAAAAUUGCCUAGAGAGAAAGGAUACCAGCACCCGGCGGUGCCCUUGGCAGCCUAGCCCAGUGAUGUUGGGUCCUCUAA [Esinvege]	235

The measured values listed here are drawn from the supplement of paper PMC9170038.
